Here, each record is paired with measured minimum inhibitory concentration data.
Test system: Mannheimia haemolytica
Experiment: minimum inhibitory concentration (MIC)
Details: isolate (source animal id): 338

Below, each entry is followed by its recorded minimum inhibitory concentration result.
compound	minimum inhibitory concentration
CS(=O)(=O)c1ccc([C@@H](O)[C@@H](CF)NC(=O)C(Cl)Cl)cc1	2 µg/mL
CNC(C)C1CCC(N)C(OC2C(N)CC(N)C(OC3OCC(C)(O)C(NC)C3O)C2O)O1 (stereo not given)	4 µg/mL
CCN1CCN(c2cc3c(cc2F)c(=O)c(C(=O)O)cn3C2CC2)CC1	0.5 µg/mL
CN[C@@H]1[C@H](O)[C@H](NC)[C@H]2O[C@@]3(O)C(=O)C[C@@H](C)O[C@H]3O[C@@H]2[C@H]1O	16 µg/mL

Okay, next one:
Quick one: give measured minimum inhibitory concentration for C=C[C@]1(C)C[C@@H](OC(=O)CSCCN(CC)CC)[C@]2(C)[C@H](C)CC[C@]3(CCC(=O)[C@H]32)[C@@H](C)[C@@H]1O 32 µg/mL

Entry source: the supplement of paper PMC8612539
